Listed binders paired with reported IC50, INSL3-stimulated CYP11B2 mRNA in H295R stably expressing rat RXFP2
biological target: rat relaxin family peptide receptor 2 (RXFP2) (rat) (UniProt Q5ECL0)
Sequence (Q5ECL0 entry or part of it): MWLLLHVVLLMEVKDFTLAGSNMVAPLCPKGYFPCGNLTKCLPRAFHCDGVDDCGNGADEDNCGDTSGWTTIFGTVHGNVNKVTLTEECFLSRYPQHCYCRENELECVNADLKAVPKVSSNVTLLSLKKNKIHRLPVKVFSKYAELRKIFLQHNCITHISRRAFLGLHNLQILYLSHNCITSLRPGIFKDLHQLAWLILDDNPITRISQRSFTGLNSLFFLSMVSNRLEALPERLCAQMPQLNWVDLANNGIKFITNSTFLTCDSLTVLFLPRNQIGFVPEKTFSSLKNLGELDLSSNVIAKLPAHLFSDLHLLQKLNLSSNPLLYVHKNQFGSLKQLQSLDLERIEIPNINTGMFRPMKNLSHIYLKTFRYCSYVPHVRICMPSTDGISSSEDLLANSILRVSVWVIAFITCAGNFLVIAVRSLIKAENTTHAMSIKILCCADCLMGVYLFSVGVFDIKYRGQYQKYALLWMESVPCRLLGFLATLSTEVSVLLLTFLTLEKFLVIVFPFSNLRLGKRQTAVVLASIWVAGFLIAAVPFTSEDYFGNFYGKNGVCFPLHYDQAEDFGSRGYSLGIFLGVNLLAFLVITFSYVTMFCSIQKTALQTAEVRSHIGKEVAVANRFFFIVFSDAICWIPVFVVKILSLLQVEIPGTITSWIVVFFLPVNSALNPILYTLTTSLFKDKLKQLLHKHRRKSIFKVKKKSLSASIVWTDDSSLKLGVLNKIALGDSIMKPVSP
Return type: number; implicit unit nM.

Quick note, IC50, INSL3-stimulated CYP11B2 mRNA in H295R stably expressing rat RXFP2 for RXFP2 mAb 2D4 (antibody, V domains shown) VH: QVQLKESGPGLVAPSQSLSITCTVSGFSLTTYGISWVRQPPGKGLEWLGVIWTGGGTNYNSALKSRLSISKDNSKSQVFLKMNSLQTDDTARYYCARTEGYYVMDYWGQGTSVTVSS VL: DIQMTQSPASLSVSVGETVTITCRASENIYSNLVWYQQKQGKSPQLLVYAATNLADGVPSRFSGSGSGTQYSLKINNLQSEDFGTYYCQHFWGPPWTFGGGTKLEIK landed at 0.11

Quick note, IC50, INSL3-stimulated CYP11B2 mRNA in H295R stably expressing rat RXFP2 for RXFP2 mAb 3H1 (antibody, V domains shown) VH: QVQLKETGPGLVAPSQSLSITCTVSGFSLTNYGVNWVRQPPGKGLEWLVVIWSDGSTNYNSALKSRLSISKDNSKSQVFLKMNSLQTDDTAMYYCARQQGYYAMDYWGQGTSVIVSS VL: DIQMTQSPASLSVSVGETVTITCRASENIYSNLAWYQQKQGKSPQLLVYAVTNLADGVPSRFSGSGSGTQYSLKINSLQSEDFGSYYCQHFWGPPYTFGGGTKLEIK landed at 0.16
